Values were extracted from the supplement of paper PMC10567573.

B1: ESR2 (parent)
chain: KSCQACRLRKCYEVGMVKCGSRRE

variants of: B1; assay: protein stability index of a GFP-peptide fusion (GPS, HEK-293T) (PSI 1-6); higher = more stable; conditions: c terminus: a fixed tail appended;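 further: lentivirally expressed fusions sorted by FACS into six bins by GFP to DsRed ratio, PSI derived from sequencing read proportions per bin multiplied by bin number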
Rule: Criterion met for protein stability index not less than 2, Criterion not met for anything less.

# mutant_label, class_assignment
rows = [
    ("E24Y", "Criterion not met"),
    ("R23Y", "Criterion met"),
    ("C3I", "Criterion met"),
    ("R7F", "Criterion met"),
    ("L8I", "Criterion not met"),
    ("Q4L", "Criterion met"),
    ("Y12F", "Criterion not met"),
    ("V17A", "Criterion met"),
    ("R7Y", "Criterion met"),
    ("C11G", "Criterion met"),
    ("G20N", "Criterion met"),
    ("C11D", "Criterion met"),
    ("L8R", "Criterion met"),
    ("R7S", "Criterion not met"),
    ("G20R", "Criterion met"),
    ("R22T", "Criterion not met"),
    ("S2T", "Criterion not met"),
    ("Q4Y", "Criterion not met"),
    ("G20I", "Criterion met"),
    ("R7V", "Criterion not met"),
    ("R23I", "Criterion met"),
    ("K1S", "Criterion met"),
    ("R22L", "Criterion not met"),
]
